# EXPERIMENT DESCRIPTION: GFP fluorescence inhibitors and quenchers, artefact control for Rin1-Abl interaction inhibitor project, biochemical (AID 602125);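 further: ABL1-eGFP fusion protein alone without its partner RIN1-SBP; 0% = protein with vehicle and 100% = wells lacking protein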
# COND: inhibitors/quenchers counterscreen, at 6.75 µM, active compounds read high
About 110 (8.5%) of roughly 1,300 compounds were called active. These entries were drawn from the full list.
As shown below, each of these compounds has a reported inhibition value.
Provide only the numeric value, understood in %.

Cc1ccccc1CN1C[C@@H]2C[C@@H](c3ccc4nsnc4c3)N3CCC[C@@]23C1=O: 0.34

Enquiry: Request the reported inhibition associated with `O=C(CNCc1ccco1)Nc1cc(S(=O)(=O)N2CCOCC2)ccc1N1CCCC1`
Return: 2.49

Enquiry: Request the reported inhibition associated with Cc1ccc(C(NC(=O)C2CCN(CCOc3ccc(Cl)cc3Cl)CC2)c2ccccn2)cc1 (stereo not drawn)
Return: -1.38

Enquiry: Request the reported inhibition associated with `Cc1ccc(-n2c(SCC(=O)NCc3ccc4c(c3)OCO4)nnc2-c2cccnc2)c(C)c1`
Return: 0.57

Enquiry: Request the reported inhibition associated with CCOc1ccc(S(=O)(=O)N2CCCCC2)cc1NC(=O)CN1CCCC1c1cccs1 (stereo not drawn)
Return: -2.43

Enquiry: Request the reported inhibition associated with `CN(Cc1c(F)cccc1Cl)C(=O)CNC(=O)c1ccc2c(c1)OCO2`
Return: 0

Enquiry: Request the reported inhibition associated with `Nc1cc(=O)c2[nH]cnc2[nH]1`
Return: 0.27

Enquiry: Request the reported inhibition associated with Nc1nc2n(n1)C(c1ccco1)CC(c1ccc(Cl)c(Cl)c1)N2 (stereo not drawn)
Return: -3.07

* * *

# EXPERIMENT DESCRIPTION: GFP fluorescence inhibitors and quenchers, artefact control for Rin1-Abl interaction inhibitor project, biochemical (AID 602125);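 further: ABL1-eGFP fusion protein alone without its partner RIN1-SBP; 0% = protein with vehicle and 100% = wells lacking protein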
# COND: inhibitors/quenchers counterscreen, at 6.75 µM, active compounds read high
Among all 1,300 compounds or so, about 110 (8.5%) were called active. Only a sample is shown.
MEASURED METRIC: inhibition (%)
Provide only the numeric value, understood in %.

Field: example entries. Status: answers known.
C=CCn1c2ccccc2c2nnc(SCc3[nH]c(=O)[nH]c3C(=O)CCCCC(=O)OCC)nc21: 0.3
Cc1cc2ccccc2n1CCNC(=O)COc1ccc2ccccc2c1: 0.81

Enquiry: Request the reported inhibition associated with CCc1ccc(CN(C)C(C)C(=O)Nc2ccc(S(=O)(=O)N3CCCC3)cc2)cc1 (stereo unspecified)
Return: -0.29

Enquiry: Request the reported inhibition associated with CCOc1ccc(CNC(=O)C2CCCN(c3nnc(C)c4c(C)n(-c5ccccc5)nc34)C2)cc1 (stereo unspecified)
Return: -0.63

Enquiry: Request the reported inhibition associated with CCOC(=O)N1CCN(C(=O)C2CCCN(c3ncnc4c3sc3cccc(F)c34)C2)CC1 (stereo unspecified)
Return: 0.85

Enquiry: Request the reported inhibition associated with `COc1ccc(CNC(=O)c2cc(C(=O)C3CC3)c[nH]2)cc1`
Return: 0

Enquiry: Request the reported inhibition associated with `CC(C)CNS(=O)(=O)c1ccc(C(=O)Nc2ccc3c(c2)OCO3)cc1`
Return: -1.46

Enquiry: Request the reported inhibition associated with `O=c1cc(CO)oc(CN2CCC(Cc3ccccc3)CC2)c1O`
Return: 0.68

Enquiry: Request the reported inhibition associated with `CN(C(=O)c1ccc(NC(=O)Cc2cccc(NC(=O)C3CCN(C(=O)c4ccccc4)CC3)c2)cc1)C1CC1`
Return: -0.72

Enquiry: Request the reported inhibition associated with `Oc1c(CN2CCN(c3ccc(F)cc3)CC2)cc(Cl)c2cccnc12`
Return: 1.29

Enquiry: Request the reported inhibition associated with `C=CCn1cc(C(=O)NCc2ccc(Cl)cc2)c(=O)c2cc(S(=O)(=O)N(CC)CC)ccc21`
Return: -0.53

* * *

As shown below, each of these compounds has a reported inhibition value.
# EXPERIMENT DESCRIPTION: GFP fluorescence inhibitors and quenchers, artefact control for Rin1-Abl interaction inhibitor project, biochemical (AID 602125);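 further: ABL1-eGFP fusion protein alone without its partner RIN1-SBP; 0% = protein with vehicle and 100% = wells lacking protein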
# COND: inhibitors/quenchers counterscreen, at 6.75 µM, active compounds read high
Screen size: about 1,300 compounds; about 110 (8.5%) were called active. The list is a sample of the results.
Provide only the numeric value, understood in %.

Field: example entries. Status: answers known.
CCOC(=O)CN(C(=O)COc1nc(C)cc(C)c1C#N)c1ccc(Cl)cc1: -1.77
CC(OC(=O)c1ccccc1NCCO)C(=O)Nc1ccnn1C(C)C (stereo not given): 0.13
CC(CCO)Nc1nc2c([nH]1)c(=O)n(C)c(=O)n2C (stereo not given): -2.15
CCCn1c(N)c(C(=O)CSc2nnc(-c3cccnc3)n2-c2ccc(C)cc2C)c(=O)[nH]c1=O: -2.86

Enquiry: Request the reported inhibition associated with `CN(C)c1ccc(N/C=C/C(=O)C(F)(F)F)cc1`
Return: 0.06

Enquiry: Request the reported inhibition associated with `CCOC(=O)N1CCN(C(=O)C2CCN(c3ncnc4c3sc3cccc(F)c34)CC2)CC1`
Return: 1.39

Enquiry: Request the reported inhibition associated with `COc1cc(C(=S)N2CCOCC2)ccc1O`
Return: -0.21

Enquiry: Request the reported inhibition associated with `CN(CC(=O)Nc1ccc(F)cc1)CC(=O)Nc1ccc(Cl)c(S(=O)(=O)N2CCOCC2)c1`
Return: -1.92

Enquiry: Request the reported inhibition associated with `O=C(Nc1ccc(S(=O)(=O)Nc2ncccn2)cc1)c1cncc(Br)c1`
Return: 0.85

Enquiry: Request the reported inhibition associated with `O=C(c1cn(-c2ccccc2)nc1-c1cc2ccccc2oc1=O)N1CCOCC1`
Return: -1.57
